biological target: Streptococcus pneumoniae peptide deformylase G70D mutant (Streptococcus pneumoniae serotype 4, UniProt Q9F2F0, G70D); experiment: Inhibition of S. pneumoniae peptide deformylase activity, G70D mutant enzyme; settings: PDF G70D
Sequence (Q9F2F0 whole entry G70D): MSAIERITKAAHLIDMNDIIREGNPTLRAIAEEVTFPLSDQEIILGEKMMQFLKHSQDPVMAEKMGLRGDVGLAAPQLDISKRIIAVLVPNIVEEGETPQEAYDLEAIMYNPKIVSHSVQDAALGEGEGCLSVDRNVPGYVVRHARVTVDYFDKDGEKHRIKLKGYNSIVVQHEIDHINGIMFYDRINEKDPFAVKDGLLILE
Item-by-item account of pIC50
# log scale: pIC50 equals minus log10 of the concentration in mol/L

Please review the following examples before continuing.
Q: Looking for the measured pIC50 of `CCCC[C@H](CN(O)C=O)C(=O)N1C[C@@H](C(C)C)C[C@H]1C(=O)Nc1ccc(F)c[n+]1[O-]` , can you help?
Ans: 8.86

Q: And the next one, `CCCC[C@H](CN(O)C=O)C(=O)N1C[C@H](C(C)C)C[C@H]1C(=O)Nc1ccc(F)c[n+]1[O-]` ?
Ans: 8.92

Q: And the next one, `O=CN(O)C[C@@H](CC1CCCC1)C(=O)N1C[C@H](F)C[C@H]1C(=O)Nc1cnccn1` ?
Ans: 9.47

Q: And the next one, CCCC[C@H](CN(O)C=O)C(=O)N1CCC[C@H]1C(=O)Nc1ccc(F)c[n+]1[O-] [reference compound] ?
Ans: 8.89

Q: And the next one, `CCCC[C@H](CN(O)C=O)C(=O)N1C[C@H](C(C)C)C[C@H]1C(=O)Nc1ccc(F)cn1` ?
Ans: 9.60

Others:
Q: Looking for the measured pIC50 of `O=CN(O)C[C@@H](CC1CCCC1)C(=O)N1C[C@H](F)C[C@H]1C(=O)Nc1cncc[n+]1[O-]` , can you help?
Ans: 9.04

Q: And the next one, `CCCC[C@H](CN(O)C=O)C(=O)N1C[C@@H](C(C)C)C[C@H]1C(=O)Nc1ccc(F)cn1` ?
Ans: 9.34
